Test system: SF-268 CNS
EXPERIMENT: NCI tumour cell line growth inhibition, 48 h

MOLECULE	TGI
Nc1nc2c(ccc3ccccc32)s1	> 100 µM
CCOC1CCN(C(=O)c2ccccc2)O1 (configuration not stated)	> 10 µM
CCN(CC)c1nc(NC2CCCCC2)c2nc(N(CC)CC)nc(NC3CCCCC3)c2n1	> 100 µM
CCOC(=O)C1(C(=O)OCC)C=C(c2ccccc2)N(C2OC(COC(C)=O)C(OC(C)=O)C(OC(C)=O)C2OC(C)=O)C1=S (configuration not stated)	> 100 µM
CC(C)(C)c1nc(-c2cccc(NS(=O)(=O)c3c(F)cccc3F)c2F)c(-c2ccnc(N)n2)s1	> 100 µM
O=C1Nc2ccccc2/C1=C/c1cn(CC(O)Cn2cc(/C=C3\C(=O)Nc4ccccc43)c3ccccc32)c2ccccc12 (configuration not stated)	3.92 µM
Cc1nc(Sc2nc3ccc([N+](=O)[O-])cc3s2)sc1C	10.9 µM
COc1ccc(/C=C/C(=O)Oc2ccccc2OC)cc1	4.71 µM
CC(=O)c1c(O)n(-c2ccc(C)cc2)c(=O)c2c(N)n[nH]c12	> 100 µM
COc1ccc2c(c1OC)C(=O)O[C@@H]2[C@H]1c2c(cc3c(c2OC)OCO3)CCN1C	> 100 µM
CC(=O)OC1C(O[C@H]2CC[C@]34O[C@]35CC[C@]3(C)C(C6(C)CC[C@@H](C(C)(C)O)O6)[C@@H](O)CC3(C)[C@@H]5CC(OC3OC(CO)C(O)C(O)C3O)C4C2(C)C)OCC(O)C1O (some centres not stated)	> 100 µM
Cc1ccc(SCC(OCn2cnc3c(Cl)nc(N)nc32)[C@H](C)F)cc1 (some centres not stated)	> 100 µM
CCNC(=S)NNC(=O)CSc1nc2ccc(I)cc2c(=O)n1Cc1ccccc1	> 100 µM
c1cc[c]([Sn]([O]c2cccc3cccnc23)([O]c2cccc3cccnc23)[c]2ccccc2)cc1	1.5 µM
CCn1c(=N)sc2nc3ccccc3n2c1=O	> 100 µM
CCN(CC)c1ccc(/C=N/NC(=O)CSc2nc3ccccc3c(=O)n2Cc2ccc(S(N)(=O)=O)cc2)c(O)c1	> 100 µM
Cn1cncc1-c1c(F)cncc1NC(=O)c1c(N)nn2cc(F)cnc12	46.2 µM
COC(=O)CCC(=O)N1CC1C (configuration not stated)	> 100 µM
N#Cc1c(-c2ccccc2)cc(Nc2ccc(Cl)cc2)n2c1nc1ccccc12	> 100 µM
N#Cc1c(-c2ccc([N+](=O)[O-])cc2)cc(-c2ccc(Nc3ccnc4cc(Cl)ccc34)cc2)nc1N	42.2 µM
Nc1ccc(-c2ccc3ncc4ccc(=O)n(-c5cccc(C(F)(F)F)c5)c4c3c2)cn1	4.61 µM
Cc1ccc(O)c(NC2=C(Cl)C(=O)N(Cc3ccccc3)C2=O)c1	47.1 µM
